- experimentalDetails: Bioavailability in rat
- Format: ADME, organism-based
- runConditions: in vivo
measuredAttribute: bioavailability (%)
Numbers only, in %.

Inquiry: // bioavailability lookup, key: `CC(=O)Nc1ccc(Sc2nc(Nc3cc(C)[nH]n3)c3ccccc3n2)cc1`
Reply text: 40

----------
- experimentalDetails: Aqueous solubility at pH 7.4
- Type: physicochemical
- runConditions: buffer
Task for the reader: assign each of the following compounds its reported solubility.
Give bare numbers, in µg/mL.

compound="Cc1cc(Nc2cc(N3CCN(C)CC3)nc(Sc3ccc(NC(=O)C4CC4)cc3)n2)[nH]n1 [TOZASERTIB]" recordedvalue=6.8

Inquiry: // solubility lookup, key: `CCC(=O)Nc1ccc(Sc2nc(Nc3cc(C)n[nH]3)cc(N3CCNCC3)n2)cc1`
Reply text: 296

----------
- targetOfAssay: Aurora kinase A (Homo sapiens, UniProt O14965)
- Sequence (O14965 whole entry): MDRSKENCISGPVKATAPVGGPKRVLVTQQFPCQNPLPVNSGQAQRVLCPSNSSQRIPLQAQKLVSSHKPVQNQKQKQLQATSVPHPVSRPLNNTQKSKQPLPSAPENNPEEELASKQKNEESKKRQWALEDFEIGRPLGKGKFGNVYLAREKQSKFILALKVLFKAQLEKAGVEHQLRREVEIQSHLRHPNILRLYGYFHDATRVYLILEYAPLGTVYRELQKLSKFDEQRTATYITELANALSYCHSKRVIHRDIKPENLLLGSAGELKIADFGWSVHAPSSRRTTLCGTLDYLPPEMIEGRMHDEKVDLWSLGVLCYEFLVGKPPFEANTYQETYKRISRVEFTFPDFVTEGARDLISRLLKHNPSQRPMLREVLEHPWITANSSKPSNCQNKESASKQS
measuredAttribute: pKi
Numbers only, as −log10 of the molar value.

Some compounds with known pKi results, for comparison:
smilesrepresentation=CCC(=O)Nc1ccc(Sc2nc(Nc3cc(C)[nH]n3)cc(N3CCC3)n2)cc1 recordedvalue=8.62
smilesrepresentation=CCC(=O)Nc1ccc(Sc2nc(Nc3cc(C)[nH]n3)cc(-c3cccnc3)n2)cc1 recordedvalue=8.41
smilesrepresentation=CCC(=O)Nc1ccc(Sc2nc(Nc3cc(C)n[nH]3)cc(N3CCNCC3)n2)cc1 recordedvalue=8.43
smilesrepresentation=CCC(=O)Nc1ccc(Sc2nc(Nc3cc(C)[nH]n3)cc(N3CCN(C)CC3)n2)cc1 recordedvalue=8.80

Turning to the following compound.
Inquiry: // pKi lookup, key: `CCC(=O)Nc1ccc(Sc2nc(Nc3cc(C)n[nH]3)cc(N3CCOCC3)n2)cc1`
Reply text: 8.77

----------
- experimentalDetails: Aqueous solubility at pH 7.4
- Format: physicochemical
- runConditions: buffer
The threshold is inclusive: solubility of exactly 10 µg/mL counts as yes (1); values below receive no (0).

smilesrepresentation=CC(=O)Nc1ccc(Sc2nccc(Nc3cc(C)[nH]n3)n2)cc1 categorylabel="yes (1)"
smilesrepresentation=CCC(=O)Nc1ccc(Sc2nc(Nc3cc(C)n[nH]3)cc(N3CCOCC3)n2)cc1 categorylabel="no (0)"
smilesrepresentation=CCC(=O)Nc1ccc(Sc2nc(Nc3cc(C)[nH]n3)cc(N3CCN(C)CC3)n2)cc1 categorylabel="yes (1)"
smilesrepresentation=CCC(=O)Nc1ccc(Sc2nc(Nc3cc(C)n[nH]3)cc(N3CCN(CC)CC3)n2)cc1 categorylabel="yes (1)"
smilesrepresentation=CCC(=O)Nc1ccc(Sc2nc(Nc3cc(C)n[nH]3)cc(N3CCN(C(C)(C)C)CC3)n2)cc1 categorylabel="yes (1)"
smilesrepresentation=CCC(=O)Nc1ccc(Sc2nc(Nc3cc(C)[nH]n3)cc(C(C)(C)C)n2)cc1 categorylabel="yes (1)"
smilesrepresentation=CCC(=O)Nc1ccc(Sc2nc(C)cc(Nc3cc(C)n[nH]3)n2)cc1 categorylabel="no (0)"
smilesrepresentation=CC(=O)Nc1ccc(Sc2nc(C)cc(Nc3cc(C)n[nH]3)n2)cc1 categorylabel="no (0)"

Next compound, please.
Inquiry: Is solubility at least 10 µg/mL? Consider `CCC(=O)Nc1ccc(Sc2nc(Nc3cc(C)n[nH]3)cc(N3CCN(C4CC4)CC3)n2)cc1`
Reply text: yes (1)

----------
- targetOfAssay: UniProtKB P49841
- Sequence (P49841 whole entry): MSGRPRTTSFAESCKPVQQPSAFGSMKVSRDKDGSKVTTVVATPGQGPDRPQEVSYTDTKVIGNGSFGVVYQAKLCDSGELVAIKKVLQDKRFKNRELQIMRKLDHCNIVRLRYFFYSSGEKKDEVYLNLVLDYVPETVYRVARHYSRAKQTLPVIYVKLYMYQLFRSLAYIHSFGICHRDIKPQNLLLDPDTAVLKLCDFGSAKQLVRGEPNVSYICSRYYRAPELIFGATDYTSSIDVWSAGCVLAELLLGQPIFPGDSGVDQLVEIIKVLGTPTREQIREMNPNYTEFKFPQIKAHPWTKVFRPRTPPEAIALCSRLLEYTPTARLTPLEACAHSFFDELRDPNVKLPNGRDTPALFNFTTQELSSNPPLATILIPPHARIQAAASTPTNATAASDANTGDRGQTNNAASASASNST
Task for the reader: assign each of the following compounds its reported Ki.

Please go through the list and note Ki for each compound.
1. Cc1cc(Nc2nc(-c3ccncc3)nc3ccccc23)n[nH]1
2. Cc1cc(Nc2nc(Sc3ccc4ccccc4c3)nc3ccccc23)n[nH]1

Reply text:
1. 0.073 µM
2. > 0.15 µM

----------
- targetOfAssay: Aurora kinase B (Homo sapiens)
- Sequence (Q96GD4 whole entry): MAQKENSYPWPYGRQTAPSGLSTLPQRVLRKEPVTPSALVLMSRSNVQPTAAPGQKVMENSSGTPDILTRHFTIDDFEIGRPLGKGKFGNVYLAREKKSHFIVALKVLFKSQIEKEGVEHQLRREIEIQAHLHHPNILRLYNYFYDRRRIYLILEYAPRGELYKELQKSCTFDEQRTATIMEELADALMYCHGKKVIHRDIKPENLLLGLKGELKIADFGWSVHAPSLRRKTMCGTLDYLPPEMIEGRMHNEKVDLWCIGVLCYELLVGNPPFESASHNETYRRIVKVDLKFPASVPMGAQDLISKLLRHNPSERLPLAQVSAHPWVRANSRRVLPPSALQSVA
- experimentalDetails: Inhibition of Aurora-B
pKi: −log10 of the molar value.
The threshold is inclusive: pKi of exactly 7 counts as T; values below receive F.

smilesrepresentation=Cc1cc(Nc2nc(Sc3ccccc3)nc3ccccc23)n[nH]1 targetofassay="Aurora kinase B (Homo sapiens)" categorylabel=F

Inquiry: Is pKi at least 7? Consider `CCC(=O)Nc1ccc(Sc2nc(Nc3cc(C)[nH]n3)cc(-c3ccncc3)n2)cc1`
Reply text: T

Inquiry: Is pKi at least 7? Consider `Cc1cc(Nc2nc(Sc3ccc(Cl)cc3Cl)nc3ccccc23)n[nH]1`
Reply text: F

Inquiry: Is pKi at least 7? Consider `CCC(=O)Nc1ccc(Sc2nc(Nc3cc(C)n[nH]3)cc(N3CCCCC3)n2)cc1`
Reply text: T

----------
Target sequence: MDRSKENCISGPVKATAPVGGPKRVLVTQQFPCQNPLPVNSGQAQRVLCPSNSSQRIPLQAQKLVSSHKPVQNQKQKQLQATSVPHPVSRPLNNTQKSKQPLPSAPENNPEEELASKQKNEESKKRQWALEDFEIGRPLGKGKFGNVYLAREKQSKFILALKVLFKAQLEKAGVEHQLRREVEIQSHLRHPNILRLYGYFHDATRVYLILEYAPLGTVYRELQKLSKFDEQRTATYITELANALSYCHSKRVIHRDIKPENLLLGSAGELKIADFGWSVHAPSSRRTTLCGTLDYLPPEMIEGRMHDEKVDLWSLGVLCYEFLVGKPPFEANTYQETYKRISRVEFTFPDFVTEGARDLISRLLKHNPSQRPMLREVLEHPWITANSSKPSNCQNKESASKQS
pKi: −log10 of the molar value.
measuredAttribute: pKi

smilesrepresentation=CCC(=O)Nc1ccc(Sc2nc(Nc3cc(C)n[nH]3)cc(N3CCN(CC)CC3)n2)cc1 measuredattribute=pKi recordedvalue="> 9.00"
smilesrepresentation=CC(=O)N(C)c1ccc(Sc2nc(Nc3cc(C)[nH]n3)c3ccccc3n2)cc1 measuredattribute=pKi recordedvalue="> 9.00"
smilesrepresentation=CCC(=O)Nc1ccc(Sc2nc(Nc3cc(C)[nH]n3)cc(-c3ccccc3)n2)cc1 measuredattribute=pKi recordedvalue="> 9.00"

Turning to the following molecule.
Inquiry: // pKi lookup, key: `CCC(=O)Nc1ccc(Sc2nc(Nc3cc(C)n[nH]3)cc(N3CCN(C4CC4)CC3)n2)cc1`
Reply text: > 9.00

----------
- targetOfAssay: Aurora kinase B (Homo sapiens)
- experimentalDetails: Inhibition of Aurora-B
measuredAttribute: Ki (nM)
One number for each entry, in nM.

Some compounds with known Ki results, for comparison:
smilesrepresentation=CC(=O)Nc1ccc(Sc2nc(Nc3cc(C)[nH]n3)cc(-c3ccccc3)n2)cc1 measuredattribute=Ki recordedvalue=83
smilesrepresentation=COc1ccc(Sc2nc(Nc3cc(C)[nH]n3)c3ccccc3n2)cc1OC measuredattribute=Ki recordedvalue=120
smilesrepresentation=CCC(=O)Nc1ccc(Sc2nc(Nc3cc(C)n[nH]3)cc(N3CCN(C(C)(C)C)CC3)n2)cc1 measuredattribute=Ki recordedvalue=11
smilesrepresentation=CC(=O)N(C)c1ccc(Sc2nc(Nc3cc(C)[nH]n3)c3ccccc3n2)cc1 measuredattribute=Ki recordedvalue=105
smilesrepresentation=CCC(=O)Nc1ccc(Sc2nc(Nc3cc(C)[nH]n3)cc(-c3cccnc3)n2)cc1 measuredattribute=Ki recordedvalue=52
smilesrepresentation=Cc1cc(Nc2nc(Sc3ccccc3Cl)nc3ccccc23)n[nH]1 measuredattribute=Ki recordedvalue=445

Please go through the list and note Ki for each compound.
1. CCC(=O)Nc1ccc(Sc2nc(Nc3cc(C)[nH]n3)cc(C(C)(C)C)n2)cc1
2. CCC(=O)Nc1ccc(Sc2nc(Nc3cc(C)n[nH]3)cc(N3CCOCC3)n2)cc1
3. CCC(=O)Nc1ccc(Sc2nc(Nc3cc(C)n[nH]3)cc(N3CCNCC3)n2)cc1
4. Cc1cc(Nc2nc(Sc3ccc(NC(=O)C4CC4)cc3)nc3ccccc23)n[nH]1
5. CCC(=O)Nc1ccc(Sc2nc(Nc3cc(C)n[nH]3)cc(N3CCN(CC)CC3)n2)cc1
6. CCC(=O)Nc1ccc(Sc2nc(Nc3cc(C)n[nH]3)cc(C3CC3)n2)cc1

Reply text:
1. 115
2. 14
3. 18
4. 51
5. 25
6. 59

Please go through the list and note Ki for each compound.
1. COc1ccccc1Sc1nc(Nc2cc(C)[nH]n2)c2ccccc2n1
2. CCC(=O)Nc1ccc(Sc2nc(Nc3cc(C)[nH]n3)cc(N3CCN(C)CC3)n2)cc1
3. CCC(=O)Nc1ccc(Sc2nc(Nc3cc(C)[nH]n3)cc(-c3ccccc3)n2)cc1

Reply text:
1: 995; 2: 20; 3: 145

Please go through the list and note Ki for each compound.
1. Cc1cc(Nc2nc(Sc3ccc(NC(=O)OC(C)(C)C)cc3)nc3ccccc23)n[nH]1
2. COc1ccc(Sc2nc(Nc3cc(C)[nH]n3)c3ccccc3n2)cc1
3. CCC(=O)Nc1ccc(Sc2nc(Nc3cc(C)n[nH]3)cc(N3CCN(C4CC4)CC3)n2)cc1
4. CC(=O)Nc1ccc(Sc2nc(C)cc(Nc3cc(C)n[nH]3)n2)cc1
5. CCC(=O)Nc1ccc(Sc2nc(C)cc(Nc3cc(C)n[nH]3)n2)cc1
6. Cc1cc(Nc2nc(Sc3cccc(Cl)c3)nc3ccccc23)n[nH]1
7. CC(=O)Nc1ccc(Sc2nccc(Nc3cc(C)[nH]n3)n2)cc1
8. Cc1cc(Nc2nc(Sc3cccc(Cl)c3Cl)nc3ccccc23)n[nH]1

Reply text:
[250, 575, 9.5, 220, 153, 185, 207, 675]

Please go through the list and note Ki for each compound.
1. CCC(=O)Nc1ccc(Sc2nc(Nc3cc(C)[nH]n3)c3ccccc3n2)cc1
2. CC(=O)Nc1ccc(Sc2nc(Nc3cc(C4CC4)[nH]n3)c3ccccc3n2)cc1
3. Cc1cc(Nc2nc(Sc3ccc(NS(C)(=O)=O)cc3)nc3ccccc23)n[nH]1
4. CCC(=O)Nc1ccc(Sc2nc(Nc3cc(C)[nH]n3)cc(N3CCC3)n2)cc1

Reply text:
1: 57; 2: 15; 3: 230; 4: 23

The values you see were collected from ChEMBL document CHEMBL1158437.
